Can you tell me Emax for the items I'm about to list?
target: UniProt:Q9Y5X5; assay: Agonist activity at human NPFF2 receptor expressed in COS1 cells assessed as [3H]inositol phosphate accumulation at 10 uM after 2 hrs by liquid scintillation counting relative to NPFF; type: functional, cell-based; conditions: COS-1
Report the value in % with no unit label.

The compound listed as N=C(N)N/N=C/C12CC3CC(CC(C3)C1)C2 shows Emax equal to 132

The compound listed as N=C(N)N/N=C/c1ccc(-c2ccc(Br)cc2C(F)(F)F)o1 shows Emax equal to 118

The compound listed as NC(N)=NCCC[C@@H](NC(=O)C(c1ccccc1)c1ccccc1)C(=O)NCc1ccc(O)cc1 shows Emax equal to 57

The compound listed as N=C(N)NCCC[C@H](NC(=O)C12CC3CC(CC(C3)C1)C2)C(=O)N[C@@H](Cc1ccccc1)C(N)=O shows Emax equal to 75

----------
biological target: Neuropeptide FF receptor 2 (Homo sapiens, UniProt Q9Y5X5, Y321A); assay: Agonist activity at human NPFF2 receptor Y5.38A mutant assessed as [3H]inositol phosphate accumulation after 2 hrs by liquid scintillation counting
Sequence (Q9Y5X5 whole entry Y321A): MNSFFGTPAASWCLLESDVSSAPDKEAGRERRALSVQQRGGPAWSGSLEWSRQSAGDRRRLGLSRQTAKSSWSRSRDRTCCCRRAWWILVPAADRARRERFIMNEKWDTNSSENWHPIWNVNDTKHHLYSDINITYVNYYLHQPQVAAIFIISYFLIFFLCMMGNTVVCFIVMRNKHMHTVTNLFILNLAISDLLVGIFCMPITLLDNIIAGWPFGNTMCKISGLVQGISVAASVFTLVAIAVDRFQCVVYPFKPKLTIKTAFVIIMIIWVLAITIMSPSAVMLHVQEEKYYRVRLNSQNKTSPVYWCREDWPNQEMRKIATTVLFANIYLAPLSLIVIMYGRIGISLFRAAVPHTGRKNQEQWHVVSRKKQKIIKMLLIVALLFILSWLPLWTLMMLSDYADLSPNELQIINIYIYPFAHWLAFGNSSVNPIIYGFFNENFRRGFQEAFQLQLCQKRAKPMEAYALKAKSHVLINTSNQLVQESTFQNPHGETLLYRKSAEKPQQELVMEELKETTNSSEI
outcome_measure: pEC50
Recall that pEC50 is obtained by taking minus log10 of the concentration measured in molar.

Recorded pEC50 for N=C(N)N/N=C/C12CC3CC(CC(C3)C1)C2 on Neuropeptide FF receptor 2 (Homo sapiens, UniProt Q9Y5X5, Y321A) was 5.61
